The measurements presented in this section are drawn from PubChem BioAssay AID248.

- Test system: L1210 leukemia ip in BDF1 mice, survival T/C
- test_protocol: NCI In Vivo Anticancer Drug Screen. Data for tumor model L1210 Leukemia (intraperitoneal) in B6D2F1 (BDF1) mice
- measurement_context: endpoint: mean survival time; dose: 12.5 mg/kg/injection; schedule: Q01DX009 (ip); vehicle: saline with Tween-80; higher = longer survival
Inconclusive results and toxic doses are left out.
assay_readout: T/C

- compound: "C1COC(NC2CC3CCC2C3)=N1 (stereo unspecified)"
  target_of_assay: "L1210 leukemia ip in BDF1 mice, survival T/C"
  T/C: "104 % of control"
- compound: "O=C(Nc1cccc(C(F)(F)F)c1)Nc1ccc2sc(=S)[nH]c2c1"
  target_of_assay: "L1210 leukemia ip in BDF1 mice, survival T/C"
  T/C: "93 % of control"
- compound: "ClCCN(CCCl)CCCN1c2ccccc2Sc2ccc(Cl)cc21"
  target_of_assay: "L1210 leukemia ip in BDF1 mice, survival T/C"
  T/C: "112 % of control"

Could you tell me T/C for each of these compounds? They are listed below.
1. [O-]/[N+](=N\O)c1ccc(/[N+]([O-])=N\O)cc1
2. CN(C)c1nc(N(C)C)nc(N(C)C)n1
3. CCN(CC)C(=O)c1ccc[n+](CC(=O)Nc2ccc(Cl)cc2)c1

Ans.
["88 % of control", "108 % of control", "97 % of control"]
